System: CAKI-1 renal
method_description: NCI tumour cell line growth inhibition, 48 h; in the data active = GI50 below about 0.43 µM; inactive = the rest
Output constraint: value belongs to label 1 for active, label 0 for inactive

Use these answered entries as a reference point.
> print(dat)
                                   compound  discrete.label
1  Clc1cc(Cl)cc(N2N=C(c3cccc(Nc4ccncc4)c3)CC2c2ccc(Br)cc2)c1 (centres undefined)         label 0
2  Cc1cc2c(C(N)=O)cccc2n1-c1nc2c(c(NCc3ccccc3)n1)CCCN2         label 1
3  O=C(N/N=C/c1ccc(O)cc1O)c1ccc(Nc2ccnc(C(F)(F)F)c2)cc1         label 1

Continue with the compound presented below.
**Query** State the result this test recorded for Cc1ccc(NS(=O)(=O)c2cc(C)ccc2C)cc1 .
**Result** label 0

====

System: SK-MEL-28 melanoma
method_description: NCI tumour cell line growth inhibition, 48 h
Reported GI50 values are given for each entry in this list.

Reference set (3 entries):
> print(dat)
                         structure.notation  reported.measurement
1  NC(=NC1CCCCCC1)c1ccc(N2CCN(c3ccc(C(N)=NC4CCCCCC4)cc3)CC2)cc1               10.7 µM
2  c1ccc2[nH]c(-c3ccc(OCCCCCOc4ccc(-c5nc6ccccc6[nH]5)cc4)cc3)nc2c1              0.394 µM
3   COc1cc2cnc3c(c2cc1OC)Cc1cc2c(cc1-3)OCO2               1.86 µM

Please fill in: GI50 reported for Cc1c(Cl)cccc1NC(=O)c1sc2nc3c(cc2c1N)CCCCCC3 = 4.59 µM

====

Tested on: 786-0 renal
method_description: NCI tumour cell line growth inhibition, 48 h
recorded_metric: GI50

Examples with answers:
> print(dat)
                                   compound  system.name  reported.measurement
1  O=C(Nc1ccncc1)C(=O)c1cn(S(=O)(=O)c2ccccc2F)c2ccccc12  786-0 renal               4.95 µM
2  CN1CCN(Cc2ccc(NC(=O)c3[nH]ncc3Nc3ncnc4c3CCC4)cc2)CC1  786-0 renal               2.24 µM
3  N#CSCC1CC(O)(c2ccccc2)C(c2ccccc2)C(c2ccc(F)cc2)O1 (stereo not given)  786-0 renal               3.05 µM
4  CCOC(=O)C(Cc1c[nH]c2cc([N+](=O)[O-])ccc12)(NC(C)=O)C(=O)OCC  786-0 renal                175 µM
5      Cn1c2ccccc2c2nnc(N/N=C/c3ccccn3)nc21  786-0 renal              0.256 µM

Lab note: measured GI50 of C=C(CN1CCN(c2ccccc2F)CC1)c1ccc(C(=O)Nc2ccccc2N)cc1 was 1.88 µM

# GI50 of CCCCC(=O)[O-].N.N.N.N.N.[Co+3].[O-][Cl+3]([O-])([O-])[O-] = > 100 µM

response.value for COc1cc(-c2cn(-c3ccc(Cl)cc3)c(=O)[nH]2)cc(OC)c1OC (field: GI50) = > 100 µM

Lab book: GI50 of C#CC[C@H](c1nc2cc(Cl)ccc2c(=O)n1Nc1ccccc1)N(CCCN)C(=O)c1cccc(Cl)c1F noted as 1.15 µM

For record CO/N=C1/NC(=O)/C(=C/c2ccc3ncccc3c2)S1 the listed GI50 is 23.4 µM

====

System: M19-MEL melanoma
method_description: NCI tumour cell line growth inhibition, 48 h
Entries and their measured TGI follow.

Here's what some known entries look like.
molecule	recorded_metric	reported_measurement
Cc1ccc(C2=Nc3ccccc3NC(=O)C2)cc1	TGI	> 100 µM
Cc1cc2c(c(C#N)c1C)NC(=O)C(CC(=O)O)C2=O (stereo not drawn)	TGI	> 100 µM
O=C1NC2(O)c3ccccc3C(=O)C2(O)N1c1ccccc1 (stereo not drawn)	TGI	> 100 µM
CC[O-].CC[O-].O=Nc1ccc2cc([O-])ccc2c1.O=Nc1ccc2cc([O-])ccc2c1.[Ti+4]	TGI	3.25 µM
COc1cccc(NC(=O)N/C(=C/c2ccc(N(CCC#N)CCC#N)cc2)NC(=O)c2cc([N+](=O)[O-])ccc2Cl)c1	TGI	> 100 µM

TGI reading for O=S(=O)(O)c1ccc(N=Nc2ccc(N=Nc3ccc(/C=C/c4ccc(N=[N+]([O-])c5ccc(/C=C/c6ccc(N=Nc7ccc(N=Nc8ccc(S(=O)(=O)O)cc8)c8ccccc78)cc6S(=O)(=O)O)c(S(=O)(=O)O)c5)cc4S(=O)(=O)O)c(S(=O)(=O)O)c3)c3ccccc23)cc1 : > 100 µM

Entry under test: CN(C)CCCn1c2c3ccccc3ccc2c2oc(=O)c3ccccc3c21 . Its TGI was 8.86 µM

Recorded result, COc1ccc(C=NC23CC4CC(CC(C4)C2)C3)cc1 , TGI: > 10 µM

====

Tested on: NCI-H522 lung
method_description: NCI tumour cell line growth inhibition, 48 h
recorded_metric: TGI

In the examples that follow, each entry is paired with its recorded TGI.
> print(dat)
                                   compound  recorded.metric  reported.measurement
1  O=C(Nc1ccncc1)C(=O)c1cn(S(=O)(=O)c2ccccc2F)c2ccccc12              TGI               4.09 µM
2  CC(=O)OC[C@@H]1[C@H]2CC(=O)O[C@H]2C[C@H]1OC(C)=O              TGI              > 100 µM

Quick note, TGI for Cc1nn2c(/C=C3/C(=O)Nc4ccccc43)c(-c3ccc(Cl)cc3)nc2s1 landed at > 50 µM

Lab note: Cc1ccc(-c2c(C#N)c(S)n(NS(=O)(=O)c3ccccc3)c(=O)c2C#N)cc1 gave TGI of 52.3 µM

Query FC(F)(F)C1(C(F)(F)F)OC(Cl)(Cl)C(Cl)(Cl)O1 yields TGI of > 10 µM

Reported TGI of Cc1cc2c(cc1Cl)Sc1nnc(C)n1S2(=O)=O : 23.4 µM

The reported TGI of the compound COc1ccc(S(=O)Cc2cc(OC)ccc2OC)cc1 (stereo unspecified) was > 100 µM

Field TGI (entry CCc1ccc(CCC(=O)Nc2ncc(Cc3ccccc3)s2)o1 ) reads > 100 µM

// TGI value for NC(=NC1CCCCCC1)c1ccc(N2CCN(c3ccc(C(N)=NC4CCCCCC4)cc3)CC2)cc1 : 23.9 µM

Form field TGI, entry O=C(O)c1ccc(NS(=O)(=O)c2cccc3cccnc23)cc1 : > 100 µM

Record Cc1cc(-c2nc3ccc(O)cc3s2)ccc1N , field TGI: > 100 µM

====

Tested on: MDA-MB-231 breast
method_description: NCI tumour cell line growth inhibition, 48 h
Each item that follows carries a reported TGI.
State the answer as a number, implicitly in µM.

> print(dat)
                                   compound        system.name  units  reported.measurement
1                     Cc1ccc2c(=O)[nH]sc2c1  MDA-MB-231 breast     µM                  31.2
2  Cc1nc(NC(=S)Nc2ccc(F)cc2)sc1C(=O)NNC(=S)Nc1ccc(F)cc1  MDA-MB-231 breast     µM                  25.1

From here, focus on the item given below.
Reported TGI ( CCOC(=O)C1(Cc2ccccc2)CCN(C(=O)c2ccccc2)C2C1C2(Cl)Cl (stereo not given) ) = 43.9

====

Tested on: SF-539 CNS
method_description: NCI tumour cell line growth inhibition, 48 h; in the data active means GI50 below about 0.43 µM; inactive means the rest
Permitted responses: true = active, false = inactive

> print(dat)
                         structure.notation  discrete.label
1  CCOc1cc2ncc(C#N)c(Nc3ccc(F)c(Cl)c3)c2cc1NC(=O)/C=C/CN(C)C           false
2    COc1ccc(C(=O)c2cc(OC)c(OC)c(OC)c2)cc1O            true
3  O=[N+]([O-])c1cccc2nc3ccccc3c(NCCNCCO)c12            true
4  COc1cc(-c2cc(-c3nc4ccccc4[nH]3)[nH]n2)cc(OC)c1OC           false

We now examine a further compound.
**Query** # fetch the recorded call for CN1CCN(Cc2ccc(NC(=O)c3[nH]ncc3Nc3ncnc4c3CCC4)cc2)CC1 here
**Result** false

====

System: HCT-15 colon
method_description: NCI tumour cell line growth inhibition, 48 h; in the data active = GI50 below about 0.43 µM; inactive = the rest
Your response should consist of one outcome taken from true (1) for active, false (0) for inactive

compound	system_name	discrete_label
O=C(CNC(=O)c1cccc2ccccc12)Nc1ccccc1Oc1ccccc1	HCT-15 colon	true (1)

Lab note: next compound to report on.
**Query** Assay result, entry N#CC(C#N)=CN1CCN(C(=O)c2ccccc2)C1=S — outcome?
**Result** false (0)
